Each entry below carries its reported EC50.
- measurementTarget: OR8H1 (Homo sapiens, UniProt Q8NGG4)
- Sequence (Q8NGG4 whole entry): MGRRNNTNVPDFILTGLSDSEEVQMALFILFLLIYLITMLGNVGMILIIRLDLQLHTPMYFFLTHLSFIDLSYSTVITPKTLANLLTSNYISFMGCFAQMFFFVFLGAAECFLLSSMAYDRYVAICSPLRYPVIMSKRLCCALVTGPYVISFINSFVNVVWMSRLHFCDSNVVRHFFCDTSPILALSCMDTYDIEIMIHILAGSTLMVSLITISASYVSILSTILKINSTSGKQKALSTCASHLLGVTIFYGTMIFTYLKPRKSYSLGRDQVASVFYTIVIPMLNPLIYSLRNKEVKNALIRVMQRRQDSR
- experimentSummary: HEK-293 cell-based cAMP luminescence
Respond with the bare value in µM.

C=C(C)[C@@H]1CC=C(C)C(=O)C1 = 193

What the record says about Cc1ccc2c(c1)C=CCC2(C)C [TDN, 1,1,6-trimethyl-1,2-dihydronaphthalene] : EC50 is 32

What the record says about `C=C(C)c1ccc(C)cc1` : EC50 is 336

What the record says about `CC(C)c1ccc(C=O)cc1` : EC50 is 92

What the record says about `C=CCc1ccc(OC)c(OC)c1` : EC50 is 114

What the record says about `COc1nccnc1C(C)C` : EC50 is 147

What the record says about CC1=CCC(C(C)(C)S)CC1 (stereo not shown) : EC50 is 206
